Target: post-Amadori AGE formation (RNase Amadori)
Assay: Post-Amadori inhibitory activity: inhibition of AGE formation from RNase Amadori, detected by ELISA (BST-3CK antibody, DELFIA Europium)
Format: biochemical
Conditions: 20 hours, 10% DMSO, 0.18 M Phosphate pH 7.4, 0.1 mg/ml RNase Amadori; tested 1000 to 1 μM; duplicate
In this section we review reported IC50 values for a set of molecules.
// units = µM; emit number, no label

| givenSmiles | unitAbbrev | IC50 |
| --- | --- | --- |
| Cc1ncc(CO)c(Cc2nc(C)c(O)c(Cc3nc(C)c(O)c(CN)c3CO)c2CO)c1O | µM | 400 |

For the next question, use this molecule.
Prompt: Find the recorded IC50 belonging to `Cc1ncc(CO)c(Cc2nc(C)c(O)c(CN)c2CO)c1O` and report it.
Completion: 1000

###

Biological target: post-Amadori AGE formation (RNase Amadori)
Test: Post-Amadori inhibitory activity: inhibition of AGE formation from RNase Amadori, detected by ELISA (BST-3CK antibody, DELFIA Europium)
Type: biochemical
Conditions: from previous experiments
metric: pIC50
pIC50 is a log-scale quantity: -log10 of the concentration expressed in molar.

Prompt: Find the recorded pIC50 belonging to Cc1ncc(CO)c(CN)c1O [Sigma PM, reference compound] and report it.
Completion: 2.15
